Value source: the MegaScale stability set (Tsuboyama et al. 2023)

B1: r16_88_TrROS_Hall (parent)
chain: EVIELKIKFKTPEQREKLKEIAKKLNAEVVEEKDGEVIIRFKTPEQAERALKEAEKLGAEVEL

variants of: B1; assay: folding stability dG (cDNA display proteolysis); higher = more stable; conditions: PBS, room temperature
Parameter folding stability dG: see the listing below.
Record the value in kcal/mol, omitting the unit from your answer.

QUERY: // folding stability dG lookup, key: I39Q
RESULT: 3.99

QUERY: // folding stability dG lookup, key: E53G
RESULT: 4.07

QUERY: // folding stability dG lookup, key: L5S
RESULT: 3.94
